The reported numbers originate from ChEMBL document CHEMBL1201862.

Measured IC50 values are reported for all entries that follow.
Biological target: Rac GTPase-activating protein 1 (Homo sapiens)
Sequence (Q9H0H5 whole entry): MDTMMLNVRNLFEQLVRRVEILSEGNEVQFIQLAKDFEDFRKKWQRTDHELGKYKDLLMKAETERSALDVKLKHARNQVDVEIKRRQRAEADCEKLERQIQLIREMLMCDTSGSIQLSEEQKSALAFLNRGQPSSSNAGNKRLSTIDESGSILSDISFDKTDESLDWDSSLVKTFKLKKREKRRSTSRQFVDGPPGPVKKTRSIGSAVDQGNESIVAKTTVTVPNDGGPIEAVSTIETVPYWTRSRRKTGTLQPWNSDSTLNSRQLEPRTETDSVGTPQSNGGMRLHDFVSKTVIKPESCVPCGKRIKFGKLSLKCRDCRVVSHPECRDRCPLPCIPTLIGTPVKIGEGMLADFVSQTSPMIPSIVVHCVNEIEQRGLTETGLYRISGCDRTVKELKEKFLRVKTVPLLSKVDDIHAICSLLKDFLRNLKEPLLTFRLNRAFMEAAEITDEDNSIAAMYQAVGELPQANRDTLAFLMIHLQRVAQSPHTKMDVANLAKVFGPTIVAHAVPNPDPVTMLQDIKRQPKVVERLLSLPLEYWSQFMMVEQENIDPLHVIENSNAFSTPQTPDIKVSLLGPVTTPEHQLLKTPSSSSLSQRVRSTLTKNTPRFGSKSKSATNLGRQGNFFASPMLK
Experiment: blockers of MgcRacGAP-driven Rac1 GTP hydrolysis – biochemical, ADP Hunter fluorescence, primary and confirmatory, confirmation (AID 624330)
Assay type: functional
Activity calls are given as the source filed them.

O=C(O)CCCNC(=O)/C=C/c1ccco1
151 µM (active)
COc1cc(C=C2C(=O)c3ccccc3C2=O)cc(OC)c1OC
126 µM (active)
NC(=S)N/N=C/c1cccc(O)c1O
31.5 µM (active)
O=C1C2C3C=CC(CC3)C2C(=O)N1/N=C/c1ccc(O)c(O)c1 (stereo not given)
74 µM (active)
O=C1CCCCCN1Sc1ccccc1
87.6 µM (active)
CCOc1ccccc1NC(=O)C(NCC1(N2CCCCC2)CCCCC1)c1ccccc1 (stereo not given)
139 µM (active)
Oc1c(Cl)cc(Cl)c2c1NCCC2
31.4 µM (active)
COc1cc2c(CCNC(C)=O)c[nH]c2cc1O
52.3 µM (active)
COc1cc(/C=C2/C(=N)N3C=C(C)SC3=NC2=O)ccc1O
71.9 µM (active)
COCCCn1c(=S)[nH]c2sc3c(c2c1=O)CCCC3
32.9 µM (active)

Enquiry: # get_value(readout='IC50', item= COc1ccc(Br)cc1CN1CCN(Cc2c[nH]c3ccccc23)CC1 )
Return: 86 µM (active)

---

Target: Peroxisome proliferator-activated receptor gamma/Nuclear receptor coactivator 1 (Homo sapiens, UniProt P37231)
Experiment: TR-FRET dose response biochemical High Throughput Screening assay for agonists of the steroid receptor coactivator 1 (SRC-1) recruitment by the peroxisome proliferator-activated receptor gamma (PPAR gamma): non-selective agonists. [Related pubchem assays (depositor defined):AID1300, AID1808, AID504735, AID631]
Assay type: protein assay
The source made the active and inactive calls.
Hello, when you answer, please use one of the following outcomes: class 1 (active), class 0 (inactive)

Recorded results for 3 molecules are shown here.
Cn1cc(Cl)c(-c2nnc(S)n2-c2ccccc2)n1
class 0
COc1ccc2c(Cl)c(C(N)=O)sc2c1
class 0
CCn1c(=O)cc(SCC(=O)Nc2ccc3c(c2)OCCO3)c2ccccc21
class 1

Enquiry: For CCN(CC)CCCN1C(=O)C(O)=C(C(=O)c2cc3ccccc3o2)C1c1ccccn1 (centres undefined) , what call appears in the results of this test?
Return: class 0

---

Target: Caspase-6 (Homo sapiens)
Sequence (P55212 24-179 limits assumed): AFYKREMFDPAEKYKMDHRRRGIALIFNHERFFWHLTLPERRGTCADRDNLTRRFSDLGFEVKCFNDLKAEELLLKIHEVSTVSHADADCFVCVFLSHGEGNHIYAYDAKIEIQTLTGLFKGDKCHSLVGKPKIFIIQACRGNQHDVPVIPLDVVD
Sequence (P55212 194-293 limits assumed): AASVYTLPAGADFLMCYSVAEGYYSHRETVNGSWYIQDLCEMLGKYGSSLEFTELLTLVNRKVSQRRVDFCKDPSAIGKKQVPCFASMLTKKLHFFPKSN
Test: inhibition of CASP6 peptide cleavage – biochemical, VEID-R110 fluorescence, cherry-pick, dose response (AID 720632)
The source made the active and inactive calls.
measuredMetric: AC50

Recorded results for 3 compounds are shown here.
C=CCOc1c(OC)cc(/C=N/Nc2cccc(C(=O)O)c2)c(Br)c1Br
19.2 µM (active)
CCOC(=O)c1ccc(Nc2cc3ccccc3c(O)n2)cc1
15.7 µM (active)
COc1ccc(NC2=C(NCCO)C(=O)c3ccccc3C2=O)cc1
6.05 µM (active)

# ---- query compound ----
Enquiry: # get_value(readout='AC50', item= C=CCn1c(NC(=O)c2ccccc2Cl)c(C#N)c2nc3ccccc3nc21 )
Return: 10.4 µM (active)

---

Biological target: Corticotropin-releasing factor receptor 2/Corticotropin-releasing factor-binding protein (Homo sapiens, UniProt P24387+Q13324)
Sequence (Q13324 whole entry): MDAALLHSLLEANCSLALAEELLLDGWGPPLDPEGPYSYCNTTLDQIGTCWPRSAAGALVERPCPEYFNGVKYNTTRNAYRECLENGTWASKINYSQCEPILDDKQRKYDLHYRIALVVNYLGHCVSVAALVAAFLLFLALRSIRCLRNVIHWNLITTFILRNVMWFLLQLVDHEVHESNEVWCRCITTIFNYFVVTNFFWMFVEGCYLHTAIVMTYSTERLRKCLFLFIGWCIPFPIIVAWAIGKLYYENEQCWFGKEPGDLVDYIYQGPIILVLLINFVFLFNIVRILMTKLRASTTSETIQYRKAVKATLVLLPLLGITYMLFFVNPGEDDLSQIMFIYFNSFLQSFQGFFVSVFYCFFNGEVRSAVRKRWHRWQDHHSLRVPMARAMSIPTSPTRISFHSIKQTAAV
Sequence (P24387 whole entry): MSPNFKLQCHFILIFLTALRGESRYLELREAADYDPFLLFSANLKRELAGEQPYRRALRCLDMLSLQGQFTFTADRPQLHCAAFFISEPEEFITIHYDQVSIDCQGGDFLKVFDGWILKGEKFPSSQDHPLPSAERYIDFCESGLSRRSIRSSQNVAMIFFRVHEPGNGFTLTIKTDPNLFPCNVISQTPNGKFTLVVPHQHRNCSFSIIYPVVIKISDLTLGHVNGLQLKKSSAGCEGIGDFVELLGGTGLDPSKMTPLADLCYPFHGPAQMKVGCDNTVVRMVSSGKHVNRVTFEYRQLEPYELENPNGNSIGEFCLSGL
Assay: Dose Response confirmation of uHTS hits for small molecule antagonists of the CRF-binding protein and CRF-R2 receptor complex.
Format: functional
Details: read-out: IC50_Mean
The source made the active and inactive calls.
Hello, when you answer, please use one of the following outcomes: 1 (yes) for active, 0 (no) for inactive

Recorded results for 4 compounds are shown here.
Cc1nn(-c2ccccc2)c(N)c1Sc1ccc([N+](=O)[O-])cc1
1 (yes)
COCCn1cnc2c(c1=O)c1nc3ccccc3nc1n2/N=C/c1cccc(OC)c1
0 (no)
COc1ccc(NC(=O)CN(C)C(=O)C2=COCCO2)cc1
1 (yes)
COc1ccc(S(=O)(=O)Nc2c(C)n(C)n(-c3ccccc3)c2=O)cc1C(=O)O
0 (no)

Moving on to the next compound.
Enquiry: For Cc1cccc(N2C(=O)NC(=O)/C(=C\c3ccc(N4CCOCC4)cc3)C2=O)c1 , what call appears in the results of this test?
Return: 0 (no)

---

Molecular target: FAD-linked sulfhydryl oxidase ALR (Homo sapiens, UniProt P55789)
Sequence (P55789 whole entry): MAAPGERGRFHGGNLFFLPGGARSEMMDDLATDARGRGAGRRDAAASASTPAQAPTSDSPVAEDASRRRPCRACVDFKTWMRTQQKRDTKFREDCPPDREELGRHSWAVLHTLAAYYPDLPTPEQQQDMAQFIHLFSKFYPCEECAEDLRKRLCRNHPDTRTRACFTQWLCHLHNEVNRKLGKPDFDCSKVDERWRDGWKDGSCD
Assay: ALR-catalysed DTT oxidation blockers – biochemical, H2O2 detection, luminescence, cherry-pick, dose response (AID 493248)
Active and inactive are the calls of the source.
measuredMetric: AC50

Recorded results for 3 molecules are shown here.
COc1ccccc1NC(=O)c1cc(O)nc2ccccc12
202 nM (active)
COc1ccc(N2CCN(C(=O)CCn3nnc4ccccc43)CC2)cc1
6110 nM (active)
O=C1CCC(=O)N1CNc1ccc(Oc2ccccc2)cc1
166 nM (active)

Enquiry: # get_value(readout='AC50', item= O=C(CCC(=O)c1cccs1)Nc1ccc(N2CCCCC2)cc1 )
Return: 6490 nM (active)

Enquiry: # get_value(readout='AC50', item= Sc1nnc(-c2ccc(Cl)cc2)n1/N=C/C=C/c1ccco1 )
Return: 1950 nM (active)

---

Target: Ubiquitin-conjugating enzyme E2 N (Homo sapiens, UniProt P61088)
Sequence (P61088 whole entry): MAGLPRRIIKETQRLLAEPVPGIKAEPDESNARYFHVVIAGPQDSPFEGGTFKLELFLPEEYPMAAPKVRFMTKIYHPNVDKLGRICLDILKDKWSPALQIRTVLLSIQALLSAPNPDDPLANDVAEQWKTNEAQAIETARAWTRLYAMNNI
Type: functional
Activity calls are given as the source filed them.
Hello, when you answer, please use one of the following outcomes: yes (1) = active, no (0) = inactive

Recorded results for 3 compounds are shown here.
CCCCCCCCCCCCC/C=C/[C@@H](O)[C@@H](N)CO [SPHINGOSINE]
yes (1)
CCN(CC)CCOC(=O)c1ccc(NC(=O)c2cn(-c3ccccc3)nc2-c2cccs2)cc1
no (0)
CCOC(=O)C1=C(COC(=O)c2ncc(Cl)c(Cl)c2Cl)NC(=O)NC1C (centres undefined)
yes (1)

Moving on to the next compound.
Enquiry: For Cn1c(=O)c2c(ncn2Cc2ccc(Cl)c(Cl)c2)n(C)c1=O , what call appears in the results of this test?
Return: yes (1)

---

Target: Protein RecA (Mycobacterium tuberculosis, UniProt P9WHJ3)
Assay: Fluorescence Cell-Free Homogeneous Dose Retest to Identify Inhibitors of RecA-Intein Splicing Activity. [Related pubchem assays (depositor defined):AID2097, AID2223, AID489010, AID492950]
Type: functional
The source made the active and inactive calls.
Hello, when you answer, please use one of the following outcomes: y for active, n for inactive

Enquiry: For COc1ccc(NC2=C(NCCO)C(=O)c3ccccc3C2=O)cc1 , what call appears in the results of this test?
Return: y

Enquiry: For CC(C)(C)c1[nH]nc2c1C(c1ccoc1)C(C#N)=C(N)O2 (centres undefined) , what call appears in the results of this test?
Return: y

Enquiry: For Cc1cc(C(=O)CN2C(=O)c3ccccc3C2=O)c(C)n1C1CC1 , what call appears in the results of this test?
Return: n

Enquiry: For Cc1cc2c(N)cccc2nn1 , what call appears in the results of this test?
Return: y

Enquiry: For O=C(OCn1ncc(Cl)c(Cl)c1=O)c1cccc(C(F)(F)F)c1 , what call appears in the results of this test?
Return: y

Enquiry: For O=C(Oc1ccc(Br)cc1C(=S)N1CCCCC1)c1cc([N+](=O)[O-])cc([N+](=O)[O-])c1 , what call appears in the results of this test?
Return: y

---

Target: ATP-dependent molecular chaperone HSP82 (Candida albicans (strain WO-1) (Yeast), UniProt C4YTQ8)
Sequence (C4YTQ8 whole entry): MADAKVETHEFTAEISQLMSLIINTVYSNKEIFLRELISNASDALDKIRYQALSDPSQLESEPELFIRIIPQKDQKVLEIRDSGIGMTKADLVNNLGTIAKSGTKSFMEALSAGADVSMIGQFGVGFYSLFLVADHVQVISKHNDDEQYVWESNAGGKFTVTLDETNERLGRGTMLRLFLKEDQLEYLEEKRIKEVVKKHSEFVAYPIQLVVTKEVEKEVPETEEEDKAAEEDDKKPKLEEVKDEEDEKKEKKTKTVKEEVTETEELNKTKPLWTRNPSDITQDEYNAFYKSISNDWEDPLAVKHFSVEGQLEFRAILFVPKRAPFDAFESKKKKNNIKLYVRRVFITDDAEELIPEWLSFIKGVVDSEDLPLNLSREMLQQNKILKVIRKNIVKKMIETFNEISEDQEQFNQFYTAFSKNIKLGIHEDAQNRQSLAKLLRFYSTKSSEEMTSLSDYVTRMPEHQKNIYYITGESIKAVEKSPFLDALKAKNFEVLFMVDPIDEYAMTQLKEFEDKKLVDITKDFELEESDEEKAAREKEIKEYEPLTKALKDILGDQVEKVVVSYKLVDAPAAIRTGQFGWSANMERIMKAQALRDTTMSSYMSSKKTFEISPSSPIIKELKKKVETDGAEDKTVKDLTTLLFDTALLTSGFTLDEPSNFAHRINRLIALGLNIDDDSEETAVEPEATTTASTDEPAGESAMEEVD
Test: steroid-induced GRE reporter decrease in yeast – S. cerevisiae, luminescence, Hsp90 inhibitor project, dose response (AID 2400);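 also: beta-galactosidase luminescence from glucocorticoid response element reporter as proxy for Hsp90 function; inhibitor potency where signal loss means Hsp90 inhibition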
Assay type: functional, cell-based
Activity calls are given as the source filed them.
measuredMetric: EC50

Recorded results for 3 compounds are shown here.
O=C(NC(Nc1nc2ccc([N+](=O)[O-])cc2s1)(C(F)(F)F)C(F)(F)F)c1ccccc1Cl
22.6 µM (active)
CC(C)(C)c1ccc(Cc2nnc(S)nc2O)cc1
9.48 µM (active)
O=C(/C(=N/N=C/c1ccc(O)c(O)c1O)c1ccccc1)c1ccccc1
5.97 µM (active)

Enquiry: # get_value(readout='EC50', item= CC1=C(CC[C@@H](C)CO)O[C@H]2C[C@H]3[C@@H]4CC[C@H]5C[C@@H](O)CC[C@]5(C)[C@H]4CC(=O)[C@]3(C)[C@@H]12 )
Return: > 150 µM (inactive)

---

Target: UniProt P03070
Sequence (P03070 whole entry): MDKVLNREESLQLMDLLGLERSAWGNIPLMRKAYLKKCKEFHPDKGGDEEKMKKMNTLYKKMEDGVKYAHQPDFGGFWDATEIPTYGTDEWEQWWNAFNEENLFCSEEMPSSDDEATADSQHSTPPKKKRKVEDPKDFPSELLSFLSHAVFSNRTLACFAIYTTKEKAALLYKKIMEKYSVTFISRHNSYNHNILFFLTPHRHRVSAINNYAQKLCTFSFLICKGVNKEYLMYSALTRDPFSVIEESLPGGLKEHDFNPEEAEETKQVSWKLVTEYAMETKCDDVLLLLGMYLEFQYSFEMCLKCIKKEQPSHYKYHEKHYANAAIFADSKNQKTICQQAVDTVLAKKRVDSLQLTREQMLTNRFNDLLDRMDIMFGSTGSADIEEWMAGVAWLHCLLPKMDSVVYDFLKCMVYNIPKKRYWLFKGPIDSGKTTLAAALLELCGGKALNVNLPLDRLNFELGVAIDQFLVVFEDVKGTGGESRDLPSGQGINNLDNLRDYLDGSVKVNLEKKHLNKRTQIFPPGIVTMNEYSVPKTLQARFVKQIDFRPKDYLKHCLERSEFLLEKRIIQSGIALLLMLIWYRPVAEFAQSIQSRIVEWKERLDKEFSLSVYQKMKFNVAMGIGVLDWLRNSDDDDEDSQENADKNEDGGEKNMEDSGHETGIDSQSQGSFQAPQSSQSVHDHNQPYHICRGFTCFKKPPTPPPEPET
Assay type: functional, Betapolyomavirus macacae
The source made the active and inactive calls.
measuredMetric: IC50

Recorded results for 4 compounds are shown here.
COc1cc(CNc2ccc(N3CCOCC3)cc2)ccc1OCC(=O)NC(C)(C)C
4.16 µM (active)
CC(C(=O)Nc1ccc(C(=O)O)c(O)c1)N1C(=O)/C(=C\c2ccco2)SC1=S (stereo not given)
47.9 µM (active)
O=Cc1sc(=O)n(Cc2cccc(C(=O)O)c2)c1Cl
18.6 µM (active)
O=c1c2c([N+](=O)[O-])cc([N+](=O)[O-])cc2sn1Cc1ccccc1
13.1 µM (active)

# ---- query compound ----
Enquiry: # get_value(readout='IC50', item= O=c1c(O)c(-c2ccc(O)c(O)c2)oc2cc(O)cc(O)c12 [QUERCETIN DIHYDRATE] )
Return: 16.1 µM (active)
